experiment: NCI Yeast Anticancer Drug Screen. Data for the cln2 rad14 strain (AID 165);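 note: 0% = growth equal to vehicle treated cultures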; settings: S. cerevisiae cln2 rad14 strain, at 50.0 µM
Compounds without any hit were thinned out: in the full panel of roughly 79,000, 15% have a hit. Calls of active or inactive are those of the source. Cut-off read from the data, not from the text of the source: active = growth inhibition above about 70%; inactive = the rest.
Allowed answers: active, inactive

CCCC[As](CCCC)SC1CCC2(C)C(=CCC3C4CCC(=O)C4(C)CCC32)C1 (stereo unspecified) :: active

What call does the record list for CC(=O)O[C@H]1CC[C@@]2(C)C(=CC[C@@H]3[C@@H]2CC[C@]2(C)C(=O)[C@@H](CN4CC4)C[C@@H]32)C1 ?
inactive

What about this compound? N#C[S-].N#C[S-].[Au+3].[Au+3].[CH3-].[CH3-].[CH3-].[CH3-]
inactive

Could you do the same for Cc1cc2c(cc1O)C(C)(C)CCC2(C)C , please?
inactive

Moving on to Cc1ccc(CCl)c(C)c1
inactive

Another compound to check: CC(=O)OC1OC(CS[As](C)CCO)C(OC(C)=O)C(OC(C)=O)C1OC(C)=O (stereo unspecified)
inactive

---

growth inhibition values, listed per item
test: NCI Yeast Anticancer Drug Screen. Data for the cln2 rad14 strain (AID 165);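 note: 0% = growth equal to vehicle treated cultures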; conditions: S. cerevisiae cln2 rad14 strain, at 50.0 µM, stronger effect = higher value
This is part of a sample that, as a whole, favours compounds with a hit. Of some 79,000 tested, about 15% had one in any assay.
# output: bare number, implied unit %

Need growth inhibition, item CS(=O)(=O)Cl
13.1

---

assay: NCI Yeast Anticancer Drug Screen. Data for the cln2 rad14 strain (AID 165);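 note: 0% = growth equal to vehicle treated cultures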; details: S. cerevisiae cln2 rad14 strain, at 50.0 µM (retest, dose inferred, filed as 5.0), stronger effect = higher value
About 79,000 compounds went through this panel and 15% of them were active in at least one assay; those are over-represented in the sample as a whole.
Catalogue of growth inhibition values
Output spec: scalar in %, unitless text.

For orientation, consider the following solved cases.
O=S(=O)(CCBr)CCBr :: 93
COc1ccc(P2(=S)Oc3ccc(C(c4ccccc4)(c4ccccc4)c4ccccc4)cc3O2)cc1 (stereo not given) :: 98
CC(=O)OC1=CC2=CC[C@H]3[C@@H]4CCC(=O)[C@@]4(C)CC(=O)[C@]3(S)[C@@]2(C)CC1 :: -70
O=[N+]([O-])/C=C/c1ccc(Cl)cc1[N+](=O)[O-] :: 97
O=C(CF)CCl :: 99
[Cl][Hg][c]1ccc2ccccc2c1 :: 97
O=C1CC2CCCC(C1)N2Cc1ccccc1 :: 47
NCCNCCNCCNCCN (tested in a mixture with another compound) :: 4

Name the reported growth inhibition value associated with the molecule C[C@]12CCCC[C@@H]1CC[C@@H]1[C@@H]2C(=O)C[C@@]2(C)[C@H]1CC[C@]2(C)O
97

Could you do the same for N=C(N)c1ccc(NN=Nc2cccc3c2Oc2ccccc2O3)cc1 , please?
69

---

experiment: NCI Yeast Anticancer Drug Screen. Data for the cln2 rad14 strain (AID 165);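 note: 0% = growth equal to vehicle treated cultures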; conditions: S. cerevisiae cln2 rad14 strain, at 50.0 µM, stronger effect = higher value
Compounds without any hit were thinned out: in the full panel of roughly 79,000, 15% have a hit.
Entries and their growth inhibition values follow.
# unit: % | format: bare number

CCOP(=O)(OCC)C(C#N)OC(C)(C)C (centres undefined) :: -0.25
CC(=O)C(CN1CCOCC1)C(c1ccccc1)c1c(O)c2ccccc2oc1=O (centres undefined) :: 0.25
CCCCc1ccc(N=C(N)N)cc1 :: 8.3
O=C(CN1CC1)NCCCCCCCNC(=O)CN1CC1 :: 8.15
CCCC[As](CCCC)SC1OC(COC(C)=O)C(OC(C)=O)C(OC(C)=O)C1OC(C)=O (centres undefined) :: 96.9

Reported growth inhibition, molecule CC(=O)[O][Pb]([CH3])([CH3])[CH3] : ____
6.7

What do you get for CCOC(=O)C1C(=O)C(=O)N2CCc3c([nH]c4ccccc34)C12 (centres undefined) ?
12.4

Lookup O=C(Nc1ccc(Cl)cc1C(=O)c1ccccc1)c1ccc(Cl)cc1
-2

Quick one: C1CN([PH+](N2CC2)N2CC2)CCO1.C1CN([PH+](N2CC2)N2CC2)CCO1.[I][Pd][I]
-8.05
